Test system: OVCAR-5
Assay: NCI tumour cell line growth inhibition, 48 h
Active and inactive are the calls of the source. Rule as the data show it: active = GI50 up to about 1.1 µM and inactive = higher.
Please respond with reported GI50 for every item in the list.

These solved cases illustrate the format of a correct answer.
| MOLECULE | GI50 |
| --- | --- |
| O=C(O)C#CCO | > 100 µM (inactive) |
| CCCCCCCCCCCCC(SCCNC(=O)CCNC(=O)C(O)C(C)(C)COP(=O)(O)OP(=O)(O)OCC1OC(n2cnc3c(N)ncnc32)C(O)C1OP(=O)(O)O)C(=O)NCC(N)=O (configuration not stated) | > 100 µM (inactive) |
| COc1ccc(CCCCl)c(C2=NCCc3cc(OC)c(OC)cc32)c1 | > 100 µM (inactive) |
| CC(Nc1cc(=O)n(C)c(=O)[nH]1)c1ccccc1 (configuration not stated) | > 100 µM (inactive) |
| Nc1nc(-c2ccccc2)cc(-c2ccc(OCc3ccccc3)cc2O)n1 | > 100 µM (inactive) |

Hi there! I need GI50 for each item below, if you can.
1. CC(=O)OCC1C(C(C)OC(C)=O)CCC2C1CCC1(C)C(OC(C)=O)CCC21 (configuration not stated)
2. O=c1[nH]c(=O)n(C2CC(O)C(CO)O2)cc1C(OCC(F)(F)F)OCC(F)(F)F (configuration not stated)
3. CN(/N=C1\C(=O)Nc2ccccc21)c1ccccc1
4. COC(=O)C1=C(c2cc(OC)c(OC)c(OC)c2)O[C@H](c2ccc3c(c2)OCO3)[C@H]1COC(C)=O
5. Cn1c(=O)sc2cc(C(=S)N3CCCCC3)ccc21

["54.6 µM (inactive)", "> 100 µM (inactive)", "45.6 µM (inactive)", "48.6 µM (inactive)", "> 100 µM (inactive)"]

# map each molecule to its GI50
1. CN(C)CCCN1N=Nc2cccc3cccc1c23
2. Cc1ccc(NC(=O)C23CC4CC(CC(C4)C2)C3)c(C(=O)NNC(=O)c2ccc(Cl)cc2)c1
3. COc1cc(/C=C2\CCc3ccccc3C2=O)cc(OC)c1OC
4. C=CCSC1=N/C(=C\c2ccco2)C(=O)N1CC=C
5. O=C(NNC(=S)NC1CCCCC1)c1csc(NC(=S)NC2CCCCC2)n1
6. O=c1[nH]nc(Cc2ccc(Cl)cc2)n1CCO
7. Oc1ccc2c(c1)CC[N+]1=C2CCC2CCCC21 (configuration not stated) [QUINDONIUM BROMIDE]
8. O=C1C=C(Nc2ccccc2C(=O)c2ccccc2)c2ccccc2C1=O

> 91.4 µM (inactive)
17.3 µM (inactive)
14.4 µM (inactive)
> 100 µM (inactive)
12.8 µM (inactive)
> 100 µM (inactive)
> 100 µM (inactive)
> 100 µM (inactive)

Please report GI50 for every entry that follows.
1. CCCCCCCCCCCCCC(=O)NCC(OCC)OCC
2. O=S(=O)(O)c1c(Cl)c(Cl)c(O)c2ncccc12
3. COC(=O)c1c(C)cccc1C1CN=NC12Cc1c(C)cccc1C2=O (configuration not stated)

["> 100 µM (inactive)", "16.7 µM (inactive)", "> 100 µM (inactive)"]

Data request, read-out GI50, for O=c1cc(N2CCCC2)[nH]c(=O)n1-c1ccc(F)cc1
> 100 µM (inactive)

* * *

System: SF-295
Experiment: NCI tumour cell line growth inhibition, 48 h
The source made the active and inactive calls. Cut-off read from the data, not from the text of the source: active = GI50 up to about 1.1 µM and inactive = higher.
Permitted responses: Y for active, N for inactive

Some solved entries appear below for comparison.
| COMPOUND | CAT |
| --- | --- |
| BC(=O)NC(CC(C)C)C(=O)NCC(=O)NC1c2ccsc2C(=O)C1O.CN(C)C (stereo not given) | N |
| COC(=O)C1(C)C=C(Nc2ccccc2)C(=O)N1c1ccccc1 (stereo not given) | N |
| COc1ccc2c(=O)c(-c3cc(OC)c(OC)cc3OC)coc2c1 | N |
| COc1cc2cc(C(=O)N3C[C@H](CCl)c4c3cc(O)c3ccccc43)[nH]c2c(OC)c1OC | Y |

Given C[N+](C)(CCNc1ccc(NCC[N+](C)(C)Cc2ccc([N+](=O)[O-])cc2)c2c1C(=O)c1c(O)ccc(O)c1C2=O)Cc1ccc([N+](=O)[O-])cc1 , state the outcome it received in this test.
N

Proceed to Cc1cc(CC(O)c2ccc(Cl)c(Cl)c2)nc(O)n1 (stereo not given)
N

Quick one: CC12OC1(C)C1C(=O)OCC1C2=O (stereo not given)
N

Another compound to look at: CCSc1nn(-c2c3ccccc3nc3ccccc23)c(=S)s1
N

// query: O=C1CC(NC(=O)C(F)(F)F)c2c(Br)sc(N3CCNCC3)c21 (stereo not given)
N

// same read-out, input: O=S(=O)(O)c1c(Cl)c(Cl)c(O)c2ncccc12
N

* * *

Give GI50 for every item shown.
Tested on: SW-620
Test: NCI tumour cell line growth inhibition, 48 h
Active and inactive are the calls of the source. No stated cut-off is given here; in the data, active = GI50 up to about 1.1 µM and inactive = higher.

| COMPOUND | TARGET_OR_TEST_SYSTEM | REPORTED_RESULT |
| --- | --- | --- |
| Cc1oncc1/N=C1\C=C(O)C(=O)c2ccccc21 | SW-620 | 4.4 µM (inactive) |

Look up GI50 for the entries below, preserving their order.
1. CN1C(=O)c2cccc3cc([N+](=O)[O-])cc(c23)C1=O
2. CCOC(=O)C(C(=O)OCC)=c1sc(=C(C(=O)OCC)C(=O)OCC)s1
3. Nc1ccc(Cc2ccc(/N=C\c3ccc(OCc4cccc(COc5ccc(/C=N\c6ccc(Cc7ccc(N)cc7)cc6)cc5)n4)cc3)cc2)cc1
4. NS(=O)(=O)c1ccc(NC(=S)N/C=C2\C(=O)Oc3ccccc3C2=O)cc1
5. COc1ccc(CCCCl)c(C2=NCCc3cc(OC)c(OC)cc32)c1
6. C(=N\c1ccc(-c2nc3ccccc3s2)cc1)/c1cccs1

> 10 µM (inactive)
> 100 µM (inactive)
> 100 µM (inactive)
40.1 µM (inactive)
72.1 µM (inactive)
75.3 µM (inactive)

* * *

Would you mind telling me the reported GI50 of each entry?
Test system: NCI-H460
Assay: NCI tumour cell line growth inhibition, 48 h
Active and inactive are the calls of the source. Rule as the data show it: active = GI50 up to about 1.1 µM and inactive = higher.

As a guide, the following entries are already answered.
| COMPOUND | GI50 |
| --- | --- |
| CC(=O)OCc1c(O)nc2c(c1O)-c1ccccc1CC2 | 77.8 µM (inactive) |
| O=[N+]([O-])c1cccc(C2=NN(c3ccccc3)C3c4ccccc4OCC23)c1 (centres undefined) | > 100 µM (inactive) |
| Cc1ccc(Cl)c2c1NC(=O)/C2=N\Nc1ccccc1[N+](=O)[O-] | 30.4 µM (inactive) |

Which GI50 is reported for this compound? CCOS(=O)(=O)c1ccc(-c2c3nc(c(-c4ccc(S(=O)(=O)OCC)cc4)c4ccc([nH]4)c(-c4ccc(S(=O)(=O)OCC)cc4)c4nc(c(-c5ccc(S(=O)(=O)OCC)cc5)c5ccc2[nH]5)C=C4)C=C3)cc1
> 31.6 µM (inactive)

* * *

Please go through the items and note down their GI50.
Tested on: MDA-MB-231
Test: NCI tumour cell line growth inhibition, 48 h
The source made the active and inactive calls. Cut-off read from the data, not from the text of the source: active = GI50 up to about 1.1 µM and inactive = higher.

These recorded examples may help you get a feel for the data.
| COMPOUND | TARGET_OR_TEST_SYSTEM | GI50 |
| --- | --- | --- |
| CCC(C)C(Nc1c2ccccc2nc2c(C(=O)NCCN(C)C)cccc12)C(=O)O (stereo not given) | MDA-MB-231 | 17.6 µM (inactive) |
| N#C/C(=C\N1CCNC1=S)C(=O)c1ccc2ccccc2c1 | MDA-MB-231 | > 100 µM (inactive) |
| COc1cccc(-n2c(N)c(-c3nc4cc(C(F)(F)F)ccc4s3)c3ccc([N+](=O)[O-])cc3c2=O)c1 | MDA-MB-231 | > 100 µM (inactive) |
| COC(=O)c1cc2c(cc1C(=O)OC)[C@@]1(C)CCCC(C)(C)C1CC2 (stereo not given in full) | MDA-MB-231 | 17.3 µM (inactive) |
| Cc1csc2c(=O)n(COCc3ccccc3)c(=O)[nH]c12 | MDA-MB-231 | > 100 µM (inactive) |
| COc1cc2cc(C(=O)N3C[C@H](CCl)c4c3cc(O)c3ccccc43)[nH]c2c(OC)c1OC | MDA-MB-231 | 1.69 µM (inactive) |

Parameters: items (list). Returns: GI50 for each item.
1. O=c1cc(N2CCCC2)[nH]c(=O)n1-c1ccc(F)cc1
2. CCOC(=O)c1sc2nc(SC)nc3c2c1NCN3c1ccc2c(c1)OCCCO2
3. BC(=O)NC(CC(C)C)C(=O)NCC(=O)NC1c2ccsc2C(=O)C1O.CN(C)C (stereo not given)
4. COc1ccc2c(c1)CCc1cc(C(N)=O)c3nnnn3c1-2

1. > 100 µM (inactive)
2. 24.3 µM (inactive)
3. > 100 µM (inactive)
4. > 49.2 µM (inactive)
